test system: IGROV1; experiment: NCI-60 one-dose screen; type: cell-based; conditions: Homo sapiens, IGROV-1; IGROV1, Ovarian Cancer panel; single dose 10^−5 M; read-out: Growth inhibition %
Recorded inhibition at 10 µM determines the group label, using c1 (below 70%), c2 (70% to below 80%), c3 (80% or more)

[[record]]
smiles = "COc1cccc(CNc2c3ccccc3nc3ccccc23)c1OC"
classname = "c2"

[[record]]
smiles = "Fc1cccc(CNc2c3ccccc3nc3ccccc23)c1F"
classname = "c1"

[[record]]
smiles = "c1csc(-c2ccc(CNc3c4ccccc4nc4ccccc34)cc2)c1"
classname = "c3"

[[record]]
smiles = "COc1ccc(CNc2c3ccccc3nc3ccccc23)cc1F"
classname = "c3"

[[record]]
smiles = "Fc1ccc(CNc2c3ccccc3nc3ccccc23)c(F)c1"
classname = "c1"

[[record]]
smiles = "Cc1ccc2nc3ccccc3c(NCc3ccccc3)c2c1"
classname = "c3"

[[record]]
smiles = "Clc1cccc(CNc2c3ccccc3nc3ccccc23)c1"
classname = "c3"

[[record]]
smiles = "Fc1ccc(CNc2c3ccccc3nc3ccccc23)cc1F"
classname = "c2"

[[record]]
smiles = "Cc1ccccc1CNc1c2ccccc2nc2ccccc12"
classname = "c3"

[[record]]
smiles = "COc1ccc(CNc2c3ccccc3nc3ccccc23)c(OC)c1"
classname = "c2"

[[record]]
smiles = "COc1ccccc1CNc1c2ccccc2nc2ccccc12"
classname = "c2"

[[record]]
smiles = "c1coc(CNc2c3ccccc3nc3ccccc23)c1"
classname = "c1"


---

test system: MOLT-4; experiment: NCI-60 one-dose screen; type: cell-based; settings: Homo sapiens; MOLT-4, Leukemia panel; single dose 10^−5 M; read-out: Growth inhibition %
experimentalEndpoint: inhibition at 10 µM (%)

[[record]]
smiles = "COc1ccc(CNc2c3ccccc3nc3ccccc23)cc1F"
reportedmeasurement = 91.1

[[record]]
smiles = "Clc1cccc(CNc2c3ccccc3nc3ccccc23)c1"
reportedmeasurement = 98.9

[[record]]
smiles = "COc1ccc(CNc2c3ccccc3nc3ccccc23)cc1"
reportedmeasurement = 90.6

[[record]]
smiles = "Clc1ccccc1CNc1c2ccccc2nc2ccccc12"
reportedmeasurement = 94.9

[[record]]
smiles = "Clc1ccc(CNc2c3ccccc3nc3ccccc23)cc1"
reportedmeasurement = 95.4

[[record]]
smiles = "COc1ccc2nc3ccccc3c(NCc3ccccc3)c2c1"
reportedmeasurement = 92

[[record]]
smiles = "COc1ccc(CNc2c3ccccc3nc3ccccc23)cc1OC"
reportedmeasurement = 89.4

[[record]]
smiles = "Cc1ccc(CNc2c3ccccc3nc3ccccc23)cc1"
reportedmeasurement = 95.7

[[record]]
smiles = "Fc1cccc(CNc2c3ccccc3nc3ccccc23)c1"
reportedmeasurement = 85.1

[[record]]
smiles = "COc1ccc2nc3ccccc3c(NCc3ccc(C)cc3)c2c1"
reportedmeasurement = 99.7

[[record]]
smiles = "COc1ccccc1CNc1c2ccccc2nc2ccccc12"
reportedmeasurement = 79.3

[[record]]
smiles = "COc1cccc(CNc2c3ccccc3nc3ccccc23)c1OC"
reportedmeasurement = 82.2

[[record]]
smiles = "COc1ccc2nc3ccccc3c(NCc3ccc(Cl)cc3)c2c1"
reportedmeasurement = 108

[[record]]
smiles = "c1coc(CNc2c3ccccc3nc3ccccc23)c1"
reportedmeasurement = 72.8

[[record]]
smiles = "c1csc(-c2ccc(CNc3c4ccccc4nc4ccccc34)cc2)c1"
reportedmeasurement = 98

